The measured values listed here are drawn from patent US20230049752A1.

- Assayed Target: CLDN3/4 (endogenous on LS513 or MCF7 cells)
- Method Notes: FACS titration of labelled mAb on LS513 cells (endogenous CLDN3/4+)
Attribute Measured: pEC50
For clarity, pEC50 is expressed as the negative log10 of concentration in mol/L.

Below, 3 binders whose answers are already recorded.
AB19 (antibody, V domains shown) VH: EVQLQQSGPELVKPGGSMKISCKASGYSFTGYTMNWVKRSHGKNLEWIGLINPYNGVTTYNQNFKGKATLAVDKSSSTAYMELLGLTSEDSAVYYCTRDPLYYGYRDSTMDYWGQGTSVTVSS VL: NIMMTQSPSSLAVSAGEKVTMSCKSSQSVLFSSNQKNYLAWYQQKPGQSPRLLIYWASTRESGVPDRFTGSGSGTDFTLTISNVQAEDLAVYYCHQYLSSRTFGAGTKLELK: 5.30
AB8 (antibody, V domains shown, full-length IgG (ExpiCHO)) VH: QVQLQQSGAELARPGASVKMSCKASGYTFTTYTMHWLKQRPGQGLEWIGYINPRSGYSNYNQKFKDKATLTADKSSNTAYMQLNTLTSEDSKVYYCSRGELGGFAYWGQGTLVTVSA VL: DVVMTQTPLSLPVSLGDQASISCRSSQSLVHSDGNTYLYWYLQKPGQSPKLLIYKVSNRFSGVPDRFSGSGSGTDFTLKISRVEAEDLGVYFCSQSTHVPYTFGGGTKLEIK: 5.95
AB6 (antibody, V domains shown, full-length IgG (ExpiCHO)) VH: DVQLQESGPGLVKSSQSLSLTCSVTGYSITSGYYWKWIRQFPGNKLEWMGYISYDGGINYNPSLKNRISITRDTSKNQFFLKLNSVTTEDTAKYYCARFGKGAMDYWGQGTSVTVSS VL: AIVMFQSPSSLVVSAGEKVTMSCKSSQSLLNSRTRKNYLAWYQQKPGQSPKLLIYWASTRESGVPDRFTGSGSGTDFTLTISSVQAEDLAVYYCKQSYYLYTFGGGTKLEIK: 6.88

Note: attention shifts to another entry.
Sure, the documented pEC50 for AB17 (antibody, V domains shown) VH: QVQLQQSGAELAKPGASVKMSCKASGYTFTGYWMHWVKQRPGQGLEWLGYINPSTGYTESNQKFKDKATLTADKSSTTAYMQLRSLTPEDSAVYYCAREGITTVLVDYWGQGTTLTVSS VL: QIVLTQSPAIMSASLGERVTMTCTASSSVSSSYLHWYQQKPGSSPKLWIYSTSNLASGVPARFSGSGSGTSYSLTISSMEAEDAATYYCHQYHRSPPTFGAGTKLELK is 5.30
